Assay: Preliminary pharmacokinetics in SD rats
Type: in vivo
Conditions: male, SD, rat, plasma, po, 10 mg/kg, p.o. 10 mg/kg, 1 h; read-out: Concentration of BH in rat plasma, Mean
observable: concentration at 1 h (ng/mL)
Numbers only, in ng/mL.

The compound identified as CC1=CC(=O)[C@@H](O)[C@]2(C)[C@H]3[C@@H](O)[C@H](O)[C@@]4(CO)OC[C@@]35[C@@H](C[C@@H]12)OC(=O)[C@H](O)[C@]54O [BH, Bruceine H] registered its concentration at 1 h at 147

---

Test: Preliminary pharmacokinetics in SD rats
Assay type: in vivo
Conditions: male, SD, rat, plasma, po, 10 mg/kg, rat, p.o.; read-out: λz, Mean (converted)
observable: k el
Answer format: value, then unit.

Note to self: k el recorded for CC1=CC(=O)[C@@H](O)[C@]2(C)[C@H]3[C@@H](O)[C@H](O)[C@@]4(CO)OC[C@@]35[C@@H](C[C@@H]12)OC(=O)[C@H](O)[C@]54O [BH, Bruceine H] was 6.89e-05 s⁻¹
